assay: Distribution coefficient DpH7.4 (Kpart), octanol/MOPS pH 7.4; format: physicochemical
Where a name gives a salt, the structure may show the parent alone.
Quantity Measured: DpH 7.4

Could you share which DpH 7.4 value was measured for Cc1cc(=O)c(O)c(C(=O)N(C)C)n1C [CP508, hydrochloride] ?
0.16

Now consider Cc1cc(=O)c(O)c(C(=O)NC(C)C)n1C [CP504, hydrochloride] .
0.30

Now consider CCc1c(O)c(=O)ccn1CC [CP94, 1,2-diethyl-3-hydroxypyridin-4-one, reference compound] .
1.79

Now consider CCn1ccc(=O)c(O)c1CO [CP359, hydrochloride] .
0.14

Now consider CCC(OC)c1c(O)c(=O)cc(C)n1C (stereo not shown) [CP375, hydrochloride] .
3.85

Now consider CC(O)c1c(O)c(=O)ccn1CCCO (stereo not shown) [CP372, hydrochloride] .
0.075

Now consider CCn1c(C)cc(=O)c(O)c1COC [CP370, hydrochloride] .
1.08

Now consider CCn1ccc(=O)c(O)c1C(C)O (stereo not shown) [CP365, hydrochloride] .
0.27

Now consider CCC(O)c1c(O)c(=O)cc(C)n1C (stereo not shown) [CP374, hydrochloride] .
0.73

Now consider O=c1ccn(CCCO)c(CO)c1O .
0.056

Now consider CCOC(C)c1c(O)c(=O)cc(C)n1C (stereo not shown) [CP373, hydrochloride] .
3.32

Now consider COCc1cc(=O)c(O)c(COC)n1C [CP388, hydrochloride] .
0.40

Now consider Cn1c(CO)cc(=O)c(O)c1CO .
0.04
